system: Jurkat; experiment: mean cell size (FSC-A) relative to DMSO control (fraction of control); higher = larger cells; details: 48 h
Counter-ions that a name gives are not always drawn.
# key: entry, value: mean cell size
// keep it numeric: no unit symbol after the value

Look over these answered cases.
compound: CC[C@@H](CO)NC(=O)[C@@H]1C=C2c3cccc4[nH]cc(c34)C[C@H]2N(C)C1 [Methylergonovine Maleate] (concentration: 25 µM)
target.entity: Jurkat
mean cell size: 1.01
--
compound: NCCCNCCSP(=O)(O)O [Amifostine] (concentration: 25 µM)
target.entity: Jurkat
mean cell size: 0.95
--
compound: C[C@]12CC[C@@H]3c4ccc(OC(=O)N(CCCl)CCCl)cc4CC[C@H]3[C@@H]1CC[C@@H]2OP(=O)(O)O [Estramustine Phosphate·Na] (concentration: 25 µM)
target.entity: Jurkat
mean cell size: 0.958
--
compound: COc1ccc(C(CN(C)C)C2(O)CCCCC2)cc1 (configuration not stated) [Venlafaxine·HCl] (concentration: 25 µM)
target.entity: Jurkat
mean cell size: 0.987

# mean cell size of O=C(O)CCCc1ccc(N(CCCl)CCCl)cc1 [Chlorambucil] (concentration: 250 nM) = 0.945

# mean cell size of Cc1nnc2n1-c1ccc(Cl)cc1C(c1ccccc1Cl)=NC2 [Triazolam] (concentration: 25 µM) = 0.935

# mean cell size of CN1C[C@H](C(=O)N[C@]2(C)O[C@@]3(O)[C@@H]4CCCN4C(=O)[C@H](Cc4ccccc4)N3C2=O)C[C@@H]2c3cccc4[nH]cc(c34)C[C@H]21 [Dihydroergotamine Mesylate] (concentration: 25 µM) = 1

----------
tested on: Jurkat; assay: cell count relative to DMSO control (fraction of control); higher = more cells (less growth inhibition); conditions: 48 h
Structures can show the parent of a compound that is named as a salt.
# cutoff 0.7 applies to cell count; >= gives Yes, < gives No

Known results for molecules:
molecule: N[C@@H](Cc1ccc(N(CCCl)CCCl)cc1)C(=O)O [Melphalan] (concentration: 250 nM)
target.entity: Jurkat
class.assignment: No

molecule: Oc1ccc2c(c1)[C@@]13CCCC[C@@]1(O)[C@@H](C2)N(CC1CCC1)CC3 [Butorphanol-(+)-Tartrate (Schedule Iv)] (concentration: 25 µM)
target.entity: Jurkat
class.assignment: No

molecule: CCN(C)C(=O)Oc1cccc([C@H](C)N(C)C)c1 [Rivastigmine Tartrate] (concentration: 25 µM)
target.entity: Jurkat
class.assignment: Yes

Request: Test whether the molecule CN1C(=O)C(O)N=C(c2ccccc2)c2cc(Cl)ccc21 (configuration not stated) [Temazepam] (concentration: 25 µM) records cell count of 0.7 or higher.
Response: Yes

Request: Test whether the molecule CN1C[C@H](C(=O)N[C@]2(C)O[C@@]3(O)[C@@H]4CCCN4C(=O)[C@H](Cc4ccccc4)N3C2=O)C=C2c3cccc4[nH]cc(c34)C[C@H]21 [Ergotamine Tartrate] (concentration: 25 µM) records cell count of 0.7 or higher.
Response: Yes

Request: Test whether the molecule O=[N+]([O-])O[C@H]1CO[C@H]2[C@@H]1OC[C@H]2O[N+](=O)[O-] [Isosorbide Dinitrate] (concentration: 25 µM) records cell count of 0.7 or higher.
Response: Yes

Request: Test whether the molecule C=C1C[C@@H]2[C@H](CC[C@]3(C)C(=O)CC[C@@H]23)[C@@]2(C)C=CC(=O)C=C12 [Exemestane] (concentration: 25 µM) records cell count of 0.7 or higher.
Response: No

Request: Test whether the molecule CN1CCN(C(=O)O[C@H]2c3nccnc3C(=O)N2c2ccc(Cl)cn2)CC1 [Eszopiclone] (concentration: 25 µM) records cell count of 0.7 or higher.
Response: Yes

----------
tested on: Jurkat; assay: mean cell size (FSC-A) relative to DMSO control (fraction of control); higher = larger cells; details: 48 h
Where a name gives a salt, the structure may show the parent alone.
readout: mean cell size
// keep it numeric: no unit symbol after the value

compound: N[C@@H](Cc1ccc(N(CCCl)CCCl)cc1)C(=O)O [Melphalan] (concentration: 250 nM)
mean cell size: 1.02
--
compound: Oc1ccc2c3c1O[C@H]1[C@@H](O)CC[C@@]4(O)[C@@H](C2)N(CC2CCC2)CC[C@]314 [Nalbuphine·HCl Dihydrate] (concentration: 25 µM)
mean cell size: 0.955
--
compound: N[C@@H]1C[C@H]1c1ccccc1.N[C@H]1C[C@@H]1c1ccccc1 [Tranylcypromine Hemisulfate] (concentration: 25 µM)
mean cell size: 0.926
--
compound: CC(C)C[C@H](CN)CC(=O)O [Pregabalin] (concentration: 25 µM)
mean cell size: 1.03
--
compound: COc1cc([C@@H]2c3cc4c(cc3[C@H](O)[C@H]3COC(=O)[C@H]23)OCO4)cc(OC)c1OC [Podofilox] (concentration: 25 nM)
mean cell size: 0.863
--
compound: COc1ccc2c(c1)[C@]13CCCC[C@@H]1[C@H](C2)N(C)CC3 [Dextromethorphan] (concentration: 25 µM)
mean cell size: 0.936
--
compound: CCN(C)C(=O)Oc1cccc([C@H](C)N(C)C)c1 [Rivastigmine Tartrate] (concentration: 25 µM)
mean cell size: 1.01
--
compound: CCOC(=O)CC(SP(=S)(OC)OC)C(=O)OCC (stereo unspecified) [Malathion] (concentration: 25 µM)
mean cell size: 0.916
--
compound: CN1CCN(C(=O)O[C@H]2c3nccnc3C(=O)N2c2ccc(Cl)cn2)CC1 [Eszopiclone] (concentration: 25 µM)
mean cell size: 1.01
--
compound: CC(C)c1cccc(C(C)C)c1O [Propofol] (concentration: 25 µM)
mean cell size: 0.972

# mean cell size of O=C1Nc2ccc(Cl)cc2C(c2ccccc2)=NC1O (stereo unspecified) [Oxazepam] (concentration: 25 µM) = 0.938

# mean cell size of Cn1c(CCCC(=O)O)nc2cc(N(CCCl)CCCl)ccc21 [Bendamustine·HCl] (concentration: 25 µM) = 1.26

# mean cell size of CN(C)[C@@H]1C(=O)C(C(N)=O)=C(O)[C@@]2(O)C(=O)C3=C(O)c4c(O)cccc4[C@@](C)(O)[C@H]3C[C@@H]12 [Tetracycline] (concentration: 25 µM) = 0.998

----------
tested on: Jurkat; test: cell count relative to DMSO control (fraction of control); higher = more cells (less growth inhibition); conditions: 48 h
# key: entry, value: cell count

compound: C=CCN1C[C@H](C(=O)N(CCCN(C)C)C(=O)NCC)C[C@@H]2c3cccc4[nH]cc(c34)C[C@H]21 [Cabergoline] (concentration: 25 µM)
readout: cell count
observed.measurement: 0.234
--
compound: O=P1(N(CCCl)CCCl)NCCCO1 (configuration not stated) [Cyclophosphamide (Free Base)] (concentration: 25 µM)
readout: cell count
observed.measurement: 0.623
--
compound: CN1C(=O)CN=C(c2ccccc2)c2cc(Cl)ccc21 [Diazepam] (concentration: 25 µM)
readout: cell count
observed.measurement: 0.925
--
compound: NC(=O)C[S+]([O-])C(c1ccccc1)c1ccccc1 (configuration not stated) [Modafinil (Schedule Iv)] (concentration: 25 µM)
readout: cell count
observed.measurement: 0.807
--
compound: CC[C@@H](C(N)=O)N1CCCC1=O [Levetiracetam] (concentration: 25 µM)
readout: cell count
observed.measurement: 0.603

# cell count of COc1cc2c(cc1OC)C1CC(=O)C(CC(C)C)CN1CC2 (configuration not stated) [Tetrabenazine] (concentration: 25 µM) = 0.833

# cell count of CC(C)N(CCC(C(N)=O)(c1ccccc1)c1ccccn1)C(C)C (configuration not stated) [Disopyramide] (concentration: 25 µM) = 0.733

----------
test system: Jurkat; assay: mean cell size (FSC-A) relative to DMSO control (fraction of control); higher = larger cells; conditions: 48 h
Where a name gives a salt, the structure may show the parent alone.
readout: mean cell size
// keep it numeric: no unit symbol after the value

Look over these answered cases.
compound: C[N+]1(C)CCCC(OC(=O)C(O)(c2ccccc2)c2ccccc2)C1 (configuration not stated) [Mepenzolate Bromide] (concentration: 25 µM)
mean cell size: 0.91

compound: Cl[C@H]1[C@H](Cl)[C@@H](Cl)[C@@H](Cl)[C@H](Cl)[C@H]1Cl [Lindane] (concentration: 25 µM)
mean cell size: 0.981

compound: C#CCN(C)[C@H](C)Cc1ccccc1 [Selegiline·HCl] (concentration: 25 µM)
mean cell size: 0.939

compound: Cc1cccc([C@H](C)c2c[nH]cn2)c1C [Dexmedetomidine·HCl] (concentration: 25 µM)
mean cell size: 0.942

compound: CN(C)C(=O)Oc1ccc[n+](C)c1 [Pyridostigmine Bromide] (concentration: 25 µM)
mean cell size: 0.986

compound: CC(C)N(CCC(C(N)=O)(c1ccccc1)c1ccccn1)C(C)C (configuration not stated) [Disopyramide] (concentration: 25 µM)
mean cell size: 0.985

# mean cell size of O=C1Nc2ccc(Cl)cc2C(c2ccccc2Cl)=NC1O (configuration not stated) [Lorazepam] (concentration: 25 µM) = 0.927
